molecular target: EGFR exon 20 ASV Ins V769_D770 (Ba/F3 cells) (Homo sapiens, UniProt P00533, INS769ASV); construct: expressed in transfected cells; host or cells: Ba/F3 (murine pro-B cells), retroviral transduction, puromycin selection, IL3-independent pool; assay: Inhibitor activity on EGFR phosphorylation (pEGFR AlphaLISA, 2 h), Ba/F3 EGFR exon 20 ASV Ins; type: cell-based; settings: EGFR phosphorylation, AlphaLISA, 2 hours; read-out: ASV IC50 (pEGFR)
Sequence (P00533 with tags, fused parts or gaps INS769ASV): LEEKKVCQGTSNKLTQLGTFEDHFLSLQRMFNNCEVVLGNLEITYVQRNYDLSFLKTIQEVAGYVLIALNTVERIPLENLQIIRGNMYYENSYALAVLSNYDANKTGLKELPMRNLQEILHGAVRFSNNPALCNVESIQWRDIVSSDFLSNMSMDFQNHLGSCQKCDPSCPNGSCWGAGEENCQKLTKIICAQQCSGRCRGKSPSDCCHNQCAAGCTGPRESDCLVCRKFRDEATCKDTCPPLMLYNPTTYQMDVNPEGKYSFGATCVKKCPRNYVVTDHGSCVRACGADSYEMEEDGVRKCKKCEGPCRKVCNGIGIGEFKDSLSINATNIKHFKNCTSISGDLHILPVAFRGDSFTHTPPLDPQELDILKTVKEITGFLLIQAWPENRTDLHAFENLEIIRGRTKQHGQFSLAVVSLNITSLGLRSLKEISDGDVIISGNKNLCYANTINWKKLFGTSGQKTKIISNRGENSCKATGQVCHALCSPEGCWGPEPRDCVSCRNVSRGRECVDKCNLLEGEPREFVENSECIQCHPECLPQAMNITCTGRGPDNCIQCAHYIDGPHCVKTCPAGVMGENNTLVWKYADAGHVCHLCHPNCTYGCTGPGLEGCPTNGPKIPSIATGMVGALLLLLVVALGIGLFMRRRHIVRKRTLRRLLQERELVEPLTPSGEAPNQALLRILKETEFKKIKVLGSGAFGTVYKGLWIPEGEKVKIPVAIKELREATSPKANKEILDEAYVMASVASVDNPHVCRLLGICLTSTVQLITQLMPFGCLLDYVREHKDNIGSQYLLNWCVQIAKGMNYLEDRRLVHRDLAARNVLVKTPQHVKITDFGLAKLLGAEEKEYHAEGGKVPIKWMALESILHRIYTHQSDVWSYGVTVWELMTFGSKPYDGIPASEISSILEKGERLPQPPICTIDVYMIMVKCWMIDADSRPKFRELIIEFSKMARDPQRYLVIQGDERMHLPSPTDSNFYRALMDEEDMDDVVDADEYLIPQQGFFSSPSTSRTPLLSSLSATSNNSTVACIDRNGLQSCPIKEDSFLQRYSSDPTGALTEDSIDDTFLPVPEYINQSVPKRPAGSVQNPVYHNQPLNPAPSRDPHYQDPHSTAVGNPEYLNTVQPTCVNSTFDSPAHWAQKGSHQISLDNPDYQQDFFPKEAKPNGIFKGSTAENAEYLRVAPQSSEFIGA
pIC50: −log10 of the molar value.
assay.metric: pIC50

Consider the worked cases shown below.
molecule="COc1c(Cl)cccc1Nc1c(-c2ccnc(Nc3ccn(CC(F)F)n3)n2)[nH]c2c1C(=O)NCC2 [compound 515]" observed="> 7.00"
molecule="CCc1c(Cl)cccc1Nc1c(-c2ccnc(N)n2)[nH]c2c1C(=O)NCC2 [compound 297]" observed="> 7.00"
molecule="COc1c(F)cccc1Nc1c(-c2ncnc3cccnc23)[nH]c2c1C(=O)NCC2 [Compound 154]" observed="< 6.00"

Query string: Param item = CCOc1c(Cl)cccc1Nc1c(-c2ccnc(N)n2)[nH]c2c1C(=O)NCC2 [Compound 700, trifluoroacetic acid] ; retrieve measured pIC50.
Result string: 6.00 to 7.00

Query string: Param item = COc1nn(C)cc1Nc1nccc(-c2[nH]c3c(c2Nc2cccc(Cl)c2OC)C(=O)NCC3)n1 [compound 219] ; retrieve measured pIC50.
Result string: > 7.00

Query string: Param item = Cc1c(C#N)cccc1Nc1c(-c2ccnc(N)n2)[nH]c2c1C(=O)NCC2 [compound 201] ; retrieve measured pIC50.
Result string: < 6.00

###

molecular target: EGFR exon 20 ASV Ins V769_D770 (Ba/F3 cells) (Homo sapiens, UniProt P00533, INS769ASV); construct: expressed in transfected cells; host or cells: Ba/F3 (murine pro-B cells), retroviral transduction, puromycin selection, IL3-independent pool; assay: Inhibitor activity on EGFR-dependent cell growth (CellTiter-Glo, 72 h), Ba/F3 EGFR exon 20 ASV Ins; assay type: cell-based; settings: read-out: BaF3 ASV IC50
Examples of compounds with documented IC50 follow.

compound="COc1c(Cl)cccc1Nc1c(-c2ccncc2F)[nH]c2c1C(=O)NC[C@@]21CCOC1 (single isomer, unassigned)" assay_metric=IC50 observed="100 to 1000 nM"
compound=COc1c(Cl)cccc1Nc1c(-c2ccnc3ccc(OCC4CN(C)C4)nc23)[nH]c2c1C(=O)NCC2 assay_metric=IC50 observed="< 100 nM"
compound=CCO[C@@H](C)c1ccc2nccc(-c3[nH]c4c(c3Nc3cccc(Cl)c3OC)C(=O)NCC4)c2n1 assay_metric=IC50 observed="< 100 nM"
compound=COc1c(Cl)cccc1Nc1c(-c2ccnc(NC(=O)c3cccc(F)c3)n2)[nH]c2c1C(=O)NCC2 assay_metric=IC50 observed="100 to 1000 nM"

Query string: Param item = COc1c(Cl)cccc1Nc1c(-c2ccnc(-c3ccnnc3)n2)[nH]c2c1C(=O)NCC2 ; retrieve measured IC50.
Result string: > 1000 nM

Query string: Param item = COc1c(F)cccc1Nc1c(-c2ccnc(SC)n2)[nH]c2c1C(=O)NCC2 ; retrieve measured IC50.
Result string: 100 to 1000 nM

Query string: Param item = COc1c(Cl)cccc1Nc1c(-c2ccncc2F)[nH]c2c1C(=O)NC[C@H]2CC(F)F ; retrieve measured IC50.
Result string: 100 to 1000 nM

Query string: Param item = C=CC(=O)N1CCN(c2ncc3nccc(-c4[nH]c5c(c4Nc4cccc(F)c4OC)C(=O)NCC5)c3n2)CC1 ; retrieve measured IC50.
Result string: < 100 nM

Query string: Param item = COc1ccc2nccc(-c3[nH]c4c(c3Nc3cccc(Cl)c3OC)C(=O)NC[C@@H]4CCF)c2n1 ; retrieve measured IC50.
Result string: < 100 nM

Query string: Param item = C=CC(=O)N1CCC2(CC1)CNC(=O)c1c2[nH]c(-c2ccncn2)c1Nc1cccc(Cl)c1OC ; retrieve measured IC50.
Result string: < 100 nM
